Values from patent US20260184715A1

targetOrSystem: UniProtKB Q14831
assayMethodText: mGlu7 assay on HEK-expressing human mGlu7: fluorescent cell based-Ca2+ mobilization assay (FLIPR), inhibition of EC80 L-AP4 response
experimentalSetup: HEK-293 cells expressing hmGlu7, EC80 L-AP4; mean of at least three independent experiments in duplicate; read-out: Ca^2+ Flux (mean IC50)
This listing pairs molecules with measured IC50.
outcomeMeasure: IC50

querySmiles: Cc1c(-c2cccc(OC3CC3)c2F)c(C)n2c(=O)n(-c3ncccn3)ncc12
targetOrSystem: UniProtKB Q14831
observedMeasurement: 100 to 1000 nM
//
querySmiles: Cc1c(-c2cc(F)cc(N3CCC3)c2)c(C)n2c(=O)n(-c3ccccn3)ncc12
targetOrSystem: UniProtKB Q14831
observedMeasurement: < 100 nM
//
querySmiles: Cc1c(-c2cccc(N3CCC3)c2)c(C)n2c(=O)n(-c3ncc(OC(F)F)cn3)ncc12
targetOrSystem: UniProtKB Q14831
observedMeasurement: < 100 nM
//
querySmiles: Cc1c(-c2cccc(N3CCC3)c2)c(C)n2c(=O)n(-c3ccc(CCO)cn3)ncc12
targetOrSystem: UniProtKB Q14831
observedMeasurement: 1000 to 10000 nM
//
querySmiles: Cc1c(OC2CC2)cccc1-c1cc2cnn(-c3ncccn3)c(=O)n2c1
targetOrSystem: UniProtKB Q14831
observedMeasurement: 100 to 1000 nM
//
querySmiles: Cc1c(-c2cccc(N3CCC3)c2)c(C)n2c(=O)n(-c3ccc(N(C(=O)OC(C)(C)C)C(=O)OC(C)(C)C)cn3)ncc12
targetOrSystem: UniProtKB Q14831
observedMeasurement: 1000 to 10000 nM
//
querySmiles: Cc1c(-c2cccc(N3CCC3)c2)c(C)n2c(=O)n(-c3ccc(Br)cn3)ncc12
targetOrSystem: UniProtKB Q14831
observedMeasurement: 1000 to 10000 nM
//
querySmiles: Cc1c(-c2cccc(OC3CC3)c2Cl)cc2cnn(-c3ncccn3)c(=O)n12
targetOrSystem: UniProtKB Q14831
observedMeasurement: < 100 nM
//
querySmiles: Cc1c(-c2cccc(OC(F)(F)F)c2)c(C)n2c(=O)n(-c3ccccn3)ncc12
targetOrSystem: UniProtKB Q14831
observedMeasurement: 100 to 1000 nM
//
querySmiles: Cc1c(-c2ccnc3c2CCN3C)cc2cnn(-c3ccccn3)c(=O)n12
targetOrSystem: UniProtKB Q14831
observedMeasurement: < 100 nM
//
querySmiles: Cc1c(OC2CC2)cccc1-c1c(C)c2cnn(-c3ncccn3)c(=O)n2c1C
targetOrSystem: UniProtKB Q14831
observedMeasurement: < 100 nM

====

targetOrSystem: human metabotropic glutamate 7 receptor (hmGlu7) (Homo sapiens, UniProt Q14831)
Sequence (Q14831 35-922 isoform Q14831-2 limits assumed): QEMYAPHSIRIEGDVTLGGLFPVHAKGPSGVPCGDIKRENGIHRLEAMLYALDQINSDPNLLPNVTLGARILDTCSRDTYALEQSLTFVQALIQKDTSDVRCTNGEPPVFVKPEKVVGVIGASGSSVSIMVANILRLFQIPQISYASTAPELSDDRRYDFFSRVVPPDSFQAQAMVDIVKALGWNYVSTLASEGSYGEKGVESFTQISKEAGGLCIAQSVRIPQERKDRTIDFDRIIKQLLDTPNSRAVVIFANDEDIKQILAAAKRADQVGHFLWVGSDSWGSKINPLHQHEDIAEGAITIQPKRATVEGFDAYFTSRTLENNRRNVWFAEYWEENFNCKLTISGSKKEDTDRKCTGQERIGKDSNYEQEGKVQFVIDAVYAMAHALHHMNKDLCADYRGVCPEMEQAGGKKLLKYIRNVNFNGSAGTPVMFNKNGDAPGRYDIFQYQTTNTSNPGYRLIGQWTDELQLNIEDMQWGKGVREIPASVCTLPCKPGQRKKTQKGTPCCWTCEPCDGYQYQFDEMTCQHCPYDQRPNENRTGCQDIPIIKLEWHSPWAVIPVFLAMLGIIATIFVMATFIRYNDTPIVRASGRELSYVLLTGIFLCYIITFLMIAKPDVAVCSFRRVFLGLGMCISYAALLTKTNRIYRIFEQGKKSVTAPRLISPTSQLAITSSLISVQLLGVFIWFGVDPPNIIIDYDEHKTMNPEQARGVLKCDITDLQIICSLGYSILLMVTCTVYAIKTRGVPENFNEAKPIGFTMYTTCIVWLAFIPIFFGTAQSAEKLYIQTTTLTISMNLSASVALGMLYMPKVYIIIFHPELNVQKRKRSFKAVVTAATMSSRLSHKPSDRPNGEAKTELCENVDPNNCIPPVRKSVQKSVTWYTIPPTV
assayMethodText: mGlu7 assay on HEK-expressing human mGlu7: fluorescent cell based-Ca2+ mobilization assay (FLIPR), inhibition of EC80 L-AP4 response
experimentalSetup: HEK-293 cells expressing hmGlu7, EC80 L-AP4; mean of at least three independent experiments in duplicate; read-out: Ca^2+ Flux (mean IC50)
This listing pairs molecules with measured IC50.
outcomeMeasure: IC50

querySmiles: Cc1c(OC2CC2)cccc1-c1c(C)c2cnn(-c3ccc(C(C)(C)O)cn3)c(=O)n2c1C
targetOrSystem: human metabotropic glutamate 7 receptor (hmGlu7) (Homo sapiens, UniProt Q14831)
observedMeasurement: < 100 nM
--
querySmiles: Cc1c(-c2cccc(OC(F)F)c2)c(C)n2c(=O)n(-c3ccccn3)ncc12
targetOrSystem: human metabotropic glutamate 7 receptor (hmGlu7) (Homo sapiens, UniProt Q14831)
observedMeasurement: < 100 nM
--
querySmiles: COc1cc(-c2cc3cnn(-c4ccccn4)c(=O)n3c2C)ccc1F
targetOrSystem: human metabotropic glutamate 7 receptor (hmGlu7) (Homo sapiens, UniProt Q14831)
observedMeasurement: < 100 nM
--
querySmiles: Cc1c(-c2cccc(OC(F)(F)F)c2)c(C)n2c(=O)n(-c3ncccn3)ncc12
targetOrSystem: human metabotropic glutamate 7 receptor (hmGlu7) (Homo sapiens, UniProt Q14831)
observedMeasurement: 100 to 1000 nM
--
querySmiles: Cc1c(-c2cccc(N3CCC3)c2)c(C)n2c(=O)n(-c3ncccc3F)ncc12
targetOrSystem: human metabotropic glutamate 7 receptor (hmGlu7) (Homo sapiens, UniProt Q14831)
observedMeasurement: < 100 nM
--
querySmiles: Cc1c(-c2cccc(N3CCC3)c2)c(C)n2c(=O)n(Cc3ccccn3)ncc12
targetOrSystem: human metabotropic glutamate 7 receptor (hmGlu7) (Homo sapiens, UniProt Q14831)
observedMeasurement: 100 to 1000 nM
--
querySmiles: Cc1ccc(OC2CC2)cc1-c1c(C)c2cnn(-c3ncccn3)c(=O)n2c1C
targetOrSystem: human metabotropic glutamate 7 receptor (hmGlu7) (Homo sapiens, UniProt Q14831)
observedMeasurement: < 100 nM
--
querySmiles: Cc1c(-c2cccc(OC3CC3)c2Cl)cc2cnn(-c3ccccn3)c(=O)n12
targetOrSystem: human metabotropic glutamate 7 receptor (hmGlu7) (Homo sapiens, UniProt Q14831)
observedMeasurement: < 100 nM
--
querySmiles: Cc1c(-c2cccc(OC3CC3)c2)c(C)n2c(=O)n(-c3ncc(F)cn3)ncc12
targetOrSystem: human metabotropic glutamate 7 receptor (hmGlu7) (Homo sapiens, UniProt Q14831)
observedMeasurement: < 100 nM
--
querySmiles: Cc1c(-c2cccc(OC(F)F)c2)c(C)n2c(=O)n(-c3ncc(F)cn3)ncc12
targetOrSystem: human metabotropic glutamate 7 receptor (hmGlu7) (Homo sapiens, UniProt Q14831)
observedMeasurement: < 100 nM
--
querySmiles: Cc1c(-c2cccc(OC(F)(F)F)c2)c(C)n2c(=O)n(-c3ncc(F)cn3)ncc12
targetOrSystem: human metabotropic glutamate 7 receptor (hmGlu7) (Homo sapiens, UniProt Q14831)
observedMeasurement: 100 to 1000 nM
--
querySmiles: Cc1c(-c2cccc3c2CC(=O)N3C)cc2cnn(-c3ccccn3)c(=O)n12
targetOrSystem: human metabotropic glutamate 7 receptor (hmGlu7) (Homo sapiens, UniProt Q14831)
observedMeasurement: < 100 nM
--
querySmiles: Cc1cnc(-n2ncc3c(C)c(-c4cccc(OC5CC5)c4C)c(C)n3c2=O)nc1
targetOrSystem: human metabotropic glutamate 7 receptor (hmGlu7) (Homo sapiens, UniProt Q14831)
observedMeasurement: 100 to 1000 nM
--
querySmiles: COc1ccc(F)c(-c2cc3cnn(-c4ccccn4)c(=O)n3c2C)c1
targetOrSystem: human metabotropic glutamate 7 receptor (hmGlu7) (Homo sapiens, UniProt Q14831)
observedMeasurement: < 100 nM
--
querySmiles: Cc1c(-c2cccc3c2ccn3C)c(C)n2c(=O)n(-c3ncccn3)ncc12
targetOrSystem: human metabotropic glutamate 7 receptor (hmGlu7) (Homo sapiens, UniProt Q14831)
observedMeasurement: 100 to 1000 nM
--
querySmiles: Cc1c(-c2cccc(OC3CC3)c2)c(C)n2c(=O)n(-c3ncc(Cl)cn3)ncc12
targetOrSystem: human metabotropic glutamate 7 receptor (hmGlu7) (Homo sapiens, UniProt Q14831)
observedMeasurement: 100 to 1000 nM
--
querySmiles: Cc1ccc(-c2c(C)c3cnn(-c4ncccn4)c(=O)n3c2C)c(C)c1
targetOrSystem: human metabotropic glutamate 7 receptor (hmGlu7) (Homo sapiens, UniProt Q14831)
observedMeasurement: 1000 to 10000 nM
--
querySmiles: Cc1c(OC2CC2)cccc1-c1cc2cnn(-c3ncccn3)c(=O)n2c1C
targetOrSystem: human metabotropic glutamate 7 receptor (hmGlu7) (Homo sapiens, UniProt Q14831)
observedMeasurement: 100 to 1000 nM
--
querySmiles: Cc1c(-c2cc3cnn(-c4ccccn4)c(=O)n3c2C)ccnc1OC1CC1
targetOrSystem: human metabotropic glutamate 7 receptor (hmGlu7) (Homo sapiens, UniProt Q14831)
observedMeasurement: < 100 nM
--
querySmiles: COc1ccc(-c2c(C)c3cnn(-c4ccccn4)c(=O)n3c2C)c(F)c1
targetOrSystem: human metabotropic glutamate 7 receptor (hmGlu7) (Homo sapiens, UniProt Q14831)
observedMeasurement: < 100 nM
--
querySmiles: Cc1c(-c2cccc(N3CCC3)c2)c(C)n2c(=O)n(-c3ccc(C(C)(C)O)cn3)ncc12
targetOrSystem: human metabotropic glutamate 7 receptor (hmGlu7) (Homo sapiens, UniProt Q14831)
observedMeasurement: < 100 nM
--
querySmiles: Cc1c(-c2cccc(OC3CC3)c2)c(C)n2c(=O)n(-c3ncccn3)ncc12
targetOrSystem: human metabotropic glutamate 7 receptor (hmGlu7) (Homo sapiens, UniProt Q14831)
observedMeasurement: < 100 nM
--
querySmiles: COc1cccc(-c2cc3cnn(-c4ccccn4)c(=O)n3c2C)c1Cl
targetOrSystem: human metabotropic glutamate 7 receptor (hmGlu7) (Homo sapiens, UniProt Q14831)
observedMeasurement: < 100 nM
--
querySmiles: Cc1c(-c2cccc(N3CCC3)c2)c(C)n2c(=O)n(-c3ncc(F)cn3)ncc12
targetOrSystem: human metabotropic glutamate 7 receptor (hmGlu7) (Homo sapiens, UniProt Q14831)
observedMeasurement: < 100 nM
--
querySmiles: Cc1c(-c2ccnc(OC(F)F)c2)cc2cnn(-c3ccccn3)c(=O)n12
targetOrSystem: human metabotropic glutamate 7 receptor (hmGlu7) (Homo sapiens, UniProt Q14831)
observedMeasurement: 100 to 1000 nM
--
querySmiles: Cc1c(-c2cccc(N3CCC3)c2)c(C)n2c(=O)n(C)ncc12
targetOrSystem: human metabotropic glutamate 7 receptor (hmGlu7) (Homo sapiens, UniProt Q14831)
observedMeasurement: 100 to 1000 nM
--
querySmiles: Cc1c(-c2cccc(N3CCC3)c2)c(C)n2c(=O)n(C3CC3)ncc12
targetOrSystem: human metabotropic glutamate 7 receptor (hmGlu7) (Homo sapiens, UniProt Q14831)
observedMeasurement: 100 to 1000 nM
--
querySmiles: COc1ccc(-c2c(C)c3cnn(-c4ncccn4)c(=O)n3c2C)c(F)c1
targetOrSystem: human metabotropic glutamate 7 receptor (hmGlu7) (Homo sapiens, UniProt Q14831)
observedMeasurement: < 100 nM
--
querySmiles: COc1cc(F)cc(-c2cc3cnn(-c4ccccn4)c(=O)n3c2C)c1
targetOrSystem: human metabotropic glutamate 7 receptor (hmGlu7) (Homo sapiens, UniProt Q14831)
observedMeasurement: 100 to 1000 nM
